# Experiment Notes: Bioavailability in cynomolgus monkey
# Type: ADME, organism-based, Macaca fascicularis
# Study Conditions: in vivo
Value Kind: bioavailability (%)
Answer format: numeric, % implied, no suffix.

Note to self: bioavailability recorded for C[C@](O)(c1ccc(C(=O)N(C2CC2)[C@H]2CC[C@](CCC(N)=O)(c3ccccc3)CC2)cc1)C(F)(F)F was 81

* * *

# Tgt: Nuclear receptor subfamily 1 group I member 2 (Homo sapiens, UniProt O75469)
# Sequence (O75469 whole entry): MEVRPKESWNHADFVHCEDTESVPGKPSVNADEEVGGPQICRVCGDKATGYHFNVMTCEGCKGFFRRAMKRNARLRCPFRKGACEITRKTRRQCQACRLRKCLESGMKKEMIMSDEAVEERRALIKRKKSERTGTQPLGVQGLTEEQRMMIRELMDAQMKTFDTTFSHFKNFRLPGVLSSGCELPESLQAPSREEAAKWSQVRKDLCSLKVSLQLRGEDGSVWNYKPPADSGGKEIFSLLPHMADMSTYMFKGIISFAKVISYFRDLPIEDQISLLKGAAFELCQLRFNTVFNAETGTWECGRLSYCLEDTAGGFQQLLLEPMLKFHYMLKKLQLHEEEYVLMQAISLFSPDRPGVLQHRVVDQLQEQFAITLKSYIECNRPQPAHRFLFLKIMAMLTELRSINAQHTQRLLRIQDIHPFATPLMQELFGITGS
# Experiment Notes: Activation of PXR relative to control
# Design: concentration or dose not given beside the values
Value Kind: Activity

Please review the following examples before continuing.
# Smiles Code, Activity
data = [
    ("C[C@](O)(c1ccc(C(=O)N(C2CC2)[C@H]2CC[C@](CCO)(c3ccccc3)CC2)cc1)C(F)(F)F", "6%"),
    ("C[C@](O)(c1ccc(C(=O)N(C2CC2)[C@H]2CC[C@](CNS(C)(=O)=O)(c3ccccc3)CC2)cc1)C(F)(F)F", "< 5%"),
]

Note: attention shifts to another entry.
Note to self: Activity recorded for C[C@](O)(c1ccc(C(=O)N(C2CC2)[C@H]2CC[C@](O)(C3CC3)CC2)cc1)C(F)(F)F was < 5%

* * *

Below is a list of entries, each paired with its recorded bioavailability value.
# Experiment Notes: Oral bioavailability in rat at 2 mg/kg
# Assay type: ADME, organism-based
# Study Conditions: in vivo
Answer format: numeric, % implied, no suffix.

# Smiles Code, bioavailability, %
rows = [
    ("C[C@](O)(c1ccc(C(=O)N(C2CC2)[C@H]2CC[C@](COC(N)=O)(c3ccccc3F)CC2)cc1)C(F)(F)F", 48),
    ("C[C@](O)(c1ccc(C(=O)N(C2CC2)[C@H]2CC[C@](COC(N)=O)(c3ccccc3)CC2)cc1)C(F)(F)F", 20),
    ("C[C@](O)(c1ccc(C(=O)N(C2CC2)[C@H]2CC[C@](COC(N)=O)(c3cscn3)CC2)cc1)C(F)(F)F", 25),
]

Note: attention shifts to another entry.
Note to self: bioavailability recorded for C[C@](O)(c1ccc(C(=O)N(C2CC2)[C@H]2CC[C@](COC(N)=O)(c3ccccn3)CC2)cc1)C(F)(F)F was 64

* * *

Below is a list of entries, each paired with its recorded metabolised at 0.5 h value.
# Experiment Notes: Metabolic stability in human liver microsomes assessed as compound turnover at 30 mins
# Assay type: ADME, Microsome
# Study Conditions: read-out: Stability

# Smiles Code, Observed Value
records = [
    ("C[C@](O)(c1ccc(C(=O)N(C2CC2)[C@H]2CC[C@](COC(N)=O)(c3ccccn3)CC2)cc1)C(F)(F)F", "< 10%"),
    ("C[C@](O)(c1ccc(C(=O)N(C2CC2)[C@H]2CC[C@](CCC(N)=O)(c3ccccc3F)CC2)cc1)C(F)(F)F", "< 10%"),
    ("C[C@](O)(c1ccc(C(=O)N(C2CC2)[C@H]2CC[C@](CCO)(c3ccccc3)CC2)cc1)C(F)(F)F", "< 10%"),
]

Note: attention shifts to another entry.
Note to self: metabolised at 0.5 h recorded for C[C@](O)(c1ccc(C(=O)N(C2CC2)[C@H]2CC[C@](CO)(c3ccccc3)CC2)cc1)C(F)(F)F was 10%

* * *

# Experiment Notes: Volume of distribution at steady state in rat at 0.5 mg/kg, iv and 2 mg/kg, po
# Type: ADME, organism-based
# Study Conditions: in vivo, read-out: Vdss
Value Kind: Vd (L/kg)
Answer format: numeric, L/kg implied, no suffix.

Note to self: Vd recorded for C[C@](O)(c1ccc(C(=O)N(C2CC2)[C@H]2CC[C@](COC(N)=O)(c3cscn3)CC2)cc1)C(F)(F)F was 3.7

Note to self: Vd recorded for C[C@](O)(c1ccc(C(=O)N(C2CC2)[C@H]2CC[C@](COC(N)=O)(c3ccccc3F)CC2)cc1)C(F)(F)F was 1.28

Note to self: Vd recorded for C[C@](O)(c1ccc(C(=O)N(C2CC2)[C@H]2CC[C@](COC(N)=O)(c3ccccn3)CC2)cc1)C(F)(F)F was 1.24

Note to self: Vd recorded for C[C@](O)(c1ccc(C(=O)N(C2CC2)[C@H]2CC[C@](COC(N)=O)(c3ccccc3)CC2)cc1)C(F)(F)F was 1

* * *

# Experiment Notes: Plasma concentration in cynomolgus monkey at 20 mg/kg, po after 2 hrs by LC/MS/MS analysis
# Assay type: ADME, organism-based, Macaca fascicularis
# Set-up: dose 20 mg/kg, route oral
Value Kind: concentration at 2 h (ng/mL)
Answer format: numeric, ng/mL implied, no suffix.

Note to self: concentration at 2 h recorded for C[C@](O)(c1ccc(C(=O)N(C2CC2)[C@H]2CC[C@](CCC(N)=O)(c3ccccc3)CC2)cc1)C(F)(F)F was 2000

* * *

# Experiment Notes: Metabolic stability in rat liver microsomes assessed as compound turnover at 30 mins
# Assay type: ADME, Microsome
# Study Conditions: read-out: Stability
Value Kind: metabolised at 0.5 h

# Smiles Code, metabolised at 0.5 h
rows = [
    ("C[C@](O)(c1ccc(C(=O)N(C2CC2)[C@H]2CC[C@](COC(N)=O)(c3ccccc3F)CC2)cc1)C(F)(F)F", "< 10%"),
    ("C[C@](O)(c1ccc(C(=O)N(C2CC2)[C@H]2CC[C@](COC(N)=O)(c3ccc(F)cn3)CC2)cc1)C(F)(F)F", "< 10%"),
    ("C[C@](O)(c1ccc(C(=O)N(C2CC2)[C@H]2CC[C@](CCO)(c3ccccc3)CC2)cc1)C(F)(F)F", "< 10%"),
    ("C[C@](O)(c1ccc(C(=O)N(C2CC2)[C@H]2CC[C@](CNS(C)(=O)=O)(c3ccccc3)CC2)cc1)C(F)(F)F", "21%"),
    ("C[C@](O)(c1ccc(C(=O)N(C2CC2)[C@H]2CC[C@](CC#N)(c3ccccc3)CC2)cc1)C(F)(F)F", "17%"),
    ("C[C@](O)(c1ccc(C(=O)N(C2CC2)[C@H]2CC[C@](COC(N)=O)(c3ccccc3)CC2)cc1)C(F)(F)F", "< 10%"),
    ("C[C@](O)(c1ccc(C(=O)N(C2CC2)[C@H]2CC[C@](CCC(N)=O)(c3ccc(F)cc3)CC2)cc1)C(F)(F)F", "< 10%"),
    ("C[C@](O)(c1ccc(C(=O)N(C2CC2)[C@H]2CC[C@](CCC#N)(c3ccccc3)CC2)cc1)C(F)(F)F", "51%"),
]

Note to self: metabolised at 0.5 h recorded for C[C@](O)(c1ccc(C(=O)N(C2CC2)[C@H]2CC[C@](CC(N)=O)(c3ccccc3)CC2)cc1)C(F)(F)F was < 10%

Note to self: metabolised at 0.5 h recorded for C[C@](O)(c1ccc(C(=O)N(C2CC2)[C@H]2CC[C@](CCC(N)=O)(c3ccccn3)CC2)cc1)C(F)(F)F was < 10%

Note to self: metabolised at 0.5 h recorded for C[C@](O)(c1ccc(C(=O)N(C2CC2)[C@H]2CC[C@](COC(N)=O)(c3cscn3)CC2)cc1)C(F)(F)F was < 10%

Note to self: metabolised at 0.5 h recorded for C[C@](O)(c1ccc(C(=O)N(C2CC2)[C@H]2CC[C@](CO)(c3ccccc3)CC2)cc1)C(F)(F)F was 32%

Note to self: metabolised at 0.5 h recorded for C[C@](O)(c1ccc(C(=O)N(C2CC2)[C@H]2CC[C@](COC(N)=O)(c3ccccn3)CC2)cc1)C(F)(F)F was < 10%

Note to self: metabolised at 0.5 h recorded for C[C@](O)(c1ccc(C(=O)N(C2CC2)[C@H]2CC[C@](CCC(N)=O)(c3ccccc3)CC2)cc1)C(F)(F)F was < 10%

Note to self: metabolised at 0.5 h recorded for C[C@](O)(c1ccc(C(=O)N(C2CC2)[C@H]2CC[C@](COC(N)=O)(c3ccc(F)cc3)CC2)cc1)C(F)(F)F was < 10%

* * *

Below is a list of entries, each paired with its recorded metabolised at 0.5 h value.
# Experiment Notes: Metabolic stability in human liver microsomes assessed as compound turnover at 30 mins
# Assay type: ADME, Microsome
# Study Conditions: read-out: Stability

# Smiles Code, Observed Value
measured = [
    ("C[C@](O)(c1ccc(C(=O)N(C2CC2)[C@H]2CC[C@](O)(C3CC3)CC2)cc1)C(F)(F)F", "< 10%"),
]

Note to self: metabolised at 0.5 h recorded for C[C@](O)(c1ccc(C(=O)N(C2CC2)[C@H]2CC[C@](CCC(N)=O)(c3ccccn3)CC2)cc1)C(F)(F)F was < 10%

Note to self: metabolised at 0.5 h recorded for C[C@](O)(c1ccc(C(=O)N(C2CC2)[C@H]2CC[C@](COC(N)=O)(c3ccc(F)cc3)CC2)cc1)C(F)(F)F was < 10%

* * *

# Experiment Notes: Plasma concentration in cynomolgus monkey at 4 mg/kg, po after 2 hrs by LC/MS/MS analysis
# Type: ADME, organism-based, Macaca fascicularis
# Design: dose 4 mg/kg, route oral
Value Kind: concentration at 2 h (ng/mL)
Answer format: numeric, ng/mL implied, no suffix.

Note to self: concentration at 2 h recorded for C[C@](O)(c1ccc(C(=O)N(C2CC2)[C@H]2CC[C@](CCC(N)=O)(c3ccccc3)CC2)cc1)C(F)(F)F was 151
